study.target: human μ opiate receptor (Homo sapiens)
Construct: purchased PerkinElmer Life Sciences, Zaventem, Belgium RB-HOM; host or cells: CHO-K1 cells (membrane preparation)
assay.protocol: Affinity for the human μ opiate receptor ([3H]-naloxone displacement, CHO-K1 receptor membrane preparation, SPA)
Assay type: binding
settings: test concentration of 1 μM
Labels assigned by μ (binding on the μ opioid receptor, % inhibition) range: lower range = under 40%, middle range = from 40% up to 50%, upper range = 50% and over

compound	class.label
CN(C)C(c1cccc(F)c1)C1CCC(CCNC(=O)COC2CCN(S(=O)(=O)c3ccc(Cl)cc3Cl)C2)CC1 (stereo not shown)	upper range
CN(C)C(CCc1ccccc1)C1CCC(CNC(=O)COCCN(C)S(=O)(=O)c2ccc(Cl)cc2)CC1 (stereo not shown)	middle range
CN(C)C(CCc1ccccc1)C1CCC(CNC(=O)COC2CCCCC2N(C)S(=O)(=O)c2ccc(Cl)c(Cl)c2)CC1 (stereo not shown)	middle range
CN(C)C(c1ccccc1)C1CCC(NC(=O)COCc2ccccc2)CC1 (stereo not shown)	upper range
CN(C)C(c1ccc(Cl)cc1)C1CCC(CNC(=O)COCCN(C)S(=O)(=O)c2ccc(F)cc2)CC1 (stereo not shown)	upper range
CN(C)C(c1ccc(Cl)cc1)C1CCC(CNC(=O)COC2CCN(S(=O)(=O)c3ccccc3)CC2)CC1 (stereo not shown)	lower range
CN(C)C(c1cccc(F)c1)C1CCC(CCNC(=O)COC2CCN(S(=O)(=O)c3ccc(F)cc3)C2)CC1 (stereo not shown)	upper range
CN(C)C(c1ccc(F)cc1)C1CCC(NC(=O)COC2CCN(S(=O)(=O)c3cccc(C(F)(F)F)c3)C2)CC1 (stereo not shown)	upper range
COc1cc(C)c(S(=O)(=O)N2CCN(CCOCC(=O)NCC3CCC(C(CCc4ccccc4)N(C)C)CC3)CC2)c(C)c1C (stereo not shown)	lower range
COc1cc(C)c(S(=O)(=O)N(CCOCC(=O)NC2CCC(C(c3ccccc3)N(C)C)CC2)Cc2ccccc2)c(C)c1 (stereo not shown)	lower range
CN(C)C(c1ccc(Cl)cc1)C1CCC(CCNC(=O)COCC2CCCN(S(=O)(=O)c3ccccc3)C2)CC1 (stereo not shown)	middle range
CN(C)C(c1ccc(F)cc1)C1CCC(CCNC(=O)COCC2CCCN(S(=O)(=O)c3ccccc3)C2)CC1 (stereo not shown)	middle range
CN(C)C(c1cccc(F)c1)C1CCC(CCNC(=O)COC2CCN(S(=O)(=O)c3ccccc3)C2)CC1 (stereo not shown)	upper range
COc1cc(C)c(S(=O)(=O)N(CCOCC(=O)NCCC2CCC(C(c3ccc(Cl)cc3)N(C)C)CC2)Cc2ccccc2)c(C)c1 (stereo not shown)	lower range
COc1ccc(S(=O)(=O)N2CCCCC2COCC(=O)NCCC2CCC(C(c3ccc(Cl)cc3)N(C)C)CC2)cc1 (stereo not shown)	upper range
CN(C)C(CCc1ccccc1)C1CCC(CNC(=O)COC2CCN(S(=O)(=O)c3cccc(C(F)(F)F)c3)C2)CC1 (stereo not shown)	lower range
COc1cc(C)c(S(=O)(=O)N(CCOCC(=O)NCC2CCC(C(CCc3ccccc3)N(C)C)CC2)Cc2ccccc2)c(C)c1C (stereo not shown)	lower range
CCN(CCOCC(=O)NCCC1CCC(C(c2ccc(Cl)cc2)N(C)C)CC1)S(=O)(=O)c1c(C)cc(OC)c(C)c1C (stereo not shown)	middle range

* * *

Overview of recorded inhibition at 1 µM for various compounds
study.target: human μ opiate receptor (Homo sapiens, UniProt P35372)
Construct: purchased PerkinElmer Life Sciences, Zaventem, Belgium RB-HOM; host or cells: CHO-K1 cells (membrane preparation)
Sequence (P35372 whole entry): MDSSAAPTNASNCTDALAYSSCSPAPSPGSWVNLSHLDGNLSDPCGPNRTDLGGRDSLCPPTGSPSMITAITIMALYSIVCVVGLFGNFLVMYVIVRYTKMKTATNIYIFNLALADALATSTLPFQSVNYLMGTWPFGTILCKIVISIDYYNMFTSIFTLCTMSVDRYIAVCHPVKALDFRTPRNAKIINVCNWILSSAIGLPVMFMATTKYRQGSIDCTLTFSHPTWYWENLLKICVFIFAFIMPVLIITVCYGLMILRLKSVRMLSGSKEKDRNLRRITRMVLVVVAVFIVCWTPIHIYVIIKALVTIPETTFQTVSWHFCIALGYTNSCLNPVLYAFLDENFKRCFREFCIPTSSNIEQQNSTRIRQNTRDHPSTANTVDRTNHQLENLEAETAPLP
assay.protocol: Affinity for the human μ opiate receptor ([3H]-naloxone displacement, CHO-K1 receptor membrane preparation, SPA)
Format: binding
settings: test concentration of 1 μM; read-out: μ (binding on the μ opioid receptor, % inhibition)
readout.name: inhibition at 1 µM (%)

compound	readout.name	result.number
COc1cc(C)c(S(=O)(=O)N2CCC(OCC(=O)NCC3CCC(C(c4cccs4)N(C)C)CC3)CC2)c(C)c1C (stereo not shown) [Example 104]	inhibition at 1 µM	90
COc1cc(C)c(S(=O)(=O)N2CCC(CCOCC(=O)NCC3CCC(C(c4cccs4)N(C)C)CC3)CC2)c(C)c1C (stereo not shown) [Example 131]	inhibition at 1 µM	86
COc1ccc(S(=O)(=O)N2CCCCC2COCC(=O)NCC2CCC(C(c3cccs3)N(C)C)CC2)cc1OC (stereo not shown) [Example 133]	inhibition at 1 µM	89
COc1ccc(S(=O)(=O)N2CCCCC2COCC(=O)NCCC2CCC(C(c3cccc(F)c3)N(C)C)CC2)cc1OC (stereo not shown) [Example 191]	inhibition at 1 µM	85
COc1cc(C)c(S(=O)(=O)N(C)CCOCC(=O)NCC2CCC(C(c3cccs3)N(C)C)CC2)c(C)c1 (stereo not shown) [Example 69]	inhibition at 1 µM	96
CN(C)C(c1cccs1)C1CCC(CCNC(=O)COC2CCN(S(=O)(=O)c3ccc(Cl)cc3)C2)CC1 (stereo not shown) [Example 66]	inhibition at 1 µM	93
CN(C)C(c1cccc(F)c1)C1CCC(NC(=O)COC2CCN(S(=O)(=O)c3cccc(C(F)(F)F)c3)C2)CC1 (stereo not shown) [Example 139]	inhibition at 1 µM	83
